Value source: paper PMC6843717

Assay: Tissue distribution after single IP or PO dose
Format: in vivo, BALB/c mice
Conditions: female, BALB/c, mouse, lungs, ip, 10 mg/kg
reported.property: tissue uptake (%ID/g)
Give bare numbers, in %ID/g.

-- ask Requested field: tissue uptake. Item: CCn1c2ccccc2c2cc(-n3nncc3-c3ccccc3)ccc21 [MBQ-167]
-- reply 0.72

---

Assay: Tissue distribution after single IP or PO dose
Type: in vivo, BALB/c mice
Conditions: female, BALB/c, mouse, kidneys, ip, 10 mg/kg
reported.property: MRT inf (h)
Numbers only, in h.

-- ask Requested field: MRT inf. Item: CCn1c2ccccc2c2cc(-n3nncc3-c3ccccc3)ccc21 [MBQ-167]
-- reply 2.12
